Each recorded value in this set is attributed to the supplement of paper PMC10338343.

# Test system: MILI (PIWIL2) piRISC loaded with L1MC piRNA (26 nt);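 further: 1 nM active piRISC with 0.1 nM target library at 33 °C single turnover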
# assay: pre-steady-state target cleavage rate (min^-1); guide: L1MC piRNA 5'p-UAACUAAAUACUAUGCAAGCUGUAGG; MIWI and MILI are mouse PIWI proteins and EfPiwi is from a freshwater sponge; tags in brackets are library labels; higher = faster piRNA-guided slicing of the target
# assay setup: auxiliary factor: 500 nM mouse GTSF1
Use y when the recorded pre-steady-state target cleavage rate is no lower than 0.06; use n when it is lower.

sequence record | class name
UCCUGGUACAGCUUGCAUAGUAUUAUCAAA | n
UCCUGGAUCAGCAACCAUAGUAUUUAGUUA | y

// query Is pre-steady-state target cleavage rate at least 0.06? Consider UCCUGGAUGUGCAUGCAUAGAAUUUAGUUA
// result n

// query Is pre-steady-state target cleavage rate at least 0.06? Consider UCCUGGAUGACCUUGCAUAGUAUUUAGUAA
// result y

// query Is pre-steady-state target cleavage rate at least 0.06? Consider UCCUGGAUCACGCUUGCAUAGUAUUUAGUUA
// result y
